B1: Double-stranded RNA-binding protein Staufen homolog 1, residues 183 to 249; numbered along this chain, O95793 (parent)
chain: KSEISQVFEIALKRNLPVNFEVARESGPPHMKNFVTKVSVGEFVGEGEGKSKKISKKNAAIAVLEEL

- Variants of: B1
- testName: abundance fitness (aPCA) (normalised: wild type 0, dead -1); higher = more abundant; growth selection in yeast, the domain comes from the species named
- studyConditions: Homo sapiens
Hi, to clarify the labels: Condition met covers abundance fitness from -0.3 upward, Condition not met covers anything below -0.3.

For orientation, consider the following solved cases.
biopolymerSequence	labelValue
KSEWSQVFEIALKRNLPVNFEVARESGPPHMKNFVTKVSVGEFVGEGEGKSKKISKKNAAIAVLEEL [I4W]	Condition not met
KSEISQVFEIALKRNLPVNFEVARESGKPHMKNFVTKVSVGEFVGEGEGKSKKISKKNAAIAVLEEL [P28K]	Condition met
KSEISQVFEIALKRNLPVNFEVARESGPPHMKNFVTKVSVGEFVGEGEGKSKKILKKNAAIAVLEEL [S55L]	Condition not met

Task item: Hello, I need to know if KSEISQVFEIALKRNLPVNFDVARESGPPHMKNFVTKVSVGEFVGEGEGKSKKISKKNAAIAVLEEL [E21D] has measured abundance fitness not below -0.3. Thanks!
Reply: Condition met

Task item: Here is the next variant: WSEISQVFEIALKRNLPVNFEVARESGPPHMKNFVTKVSVGEFVGEGEGKSKKISKKNAAIAVLEEL [K1W]
Reply: Condition not met
